Assay: amyloid nucleation score (Sup35N fusion, yeast selection) (log enrichment); library NNK2; higher = more nucleation; inactive = no reads after selection;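 also: zero at mode of non-aggregating sequences after 7 days selection at 30°C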
metricName: amyloid nucleation score

Guide cases for amyloid nucleation score, answers given:
MRSYRLYLIPFHFLGWLINS; inactive
ESGFGMSSNWKPERNFW; inactive
AKVSSMVQECNLYLELETRL; inactive
KNKSFNMACPVLVYGGFLIR; inactive

API: the following record is the query input.
// query amyloid nucleation score value for entry `FVFLFMRLKDGFYATIYISH`
inactive

---

Assay: amyloid nucleation score (Sup35N fusion, yeast selection) (log enrichment); library NNK2; higher = more nucleation; inactive = no reads after selection
metricName: amyloid nucleation score

HVRGDLSRTGKWVMLRCYTR; inactive
VCFCQAFYGTRYHKCLVGLF; inactive
MSITSC; inactive
